Each entry below carries its reported absolute recovery.
assay: absolute recovery over vacuum-assisted evaporative concentration; higher = better recovery; details: wastewater influent; enrichment method: VEC

Reference set, count: 6
compound: Cc1cccc(Nc2ccccc2C(=O)[O-])c1C [Mefenamic-acid]
result: 97.7%

compound: CC(=O)SC1CC2=CC(=O)CCC2(C)C2CCC3(C)C(CCC34CCC(=O)O4)C12 (stereo not given) [Spironolacton]
result: 91.9%

compound: CCOC(=O)NCCOc1ccc(Oc2ccccc2)cc1 [Fenoxycarb]
result: 120%

compound: Cc1cc(C)nc(Nc2ccccc2)n1 [Pyrimethanil]
result: 86.4%

compound: Nc1nc(=O)n(C2CSC(CO)O2)cc1F (stereo not given) [Emtricitabine]
result: 101%

compound: CC(C)CN(CC(O)C(Cc1ccccc1)NC(=O)OC1COC2OCCC12)S(=O)(=O)c1ccc(N)cc1 (stereo not given) [Darunavir]
result: 99.7%

For the compound shown here, Nc1nc(=O)c2ncn(CCC(CO)CO)c2[nH]1 [Penciclovir] , give the reported absolute recovery.
104%

So what does the record say about absolute recovery for Cc1c(OCC(F)(F)F)ccnc1CS(=O)c1nc2ccccc2[nH]1 (stereo not given) [Lansoprazole] ?
100%

Need absolute recovery, item CCCCc1[nH+]cc(C=C(Cc2cccs2)C(=O)[O-])n1Cc1ccc(C(=O)[O-])cc1 [Eprosartan]
96.1%

absolute recovery lookup needed for CS(=O)(=O)c1ccc(C(=O)[C-]2C(=O)CCCC2=O)c([N+](=O)[O-])c1 [Mesotrion] , thanks.
103%

Field request: absolute recovery | item: C[NH2+]CCC(Oc1ccc(C(F)(F)F)cc1)c1ccccc1 (stereo not given) [Fluoxetin]
91.9%

Which absolute recovery is reported for this compound? CC(C)N1C(=O)N(c2ccccc2)CSC1=NC(C)(C)C [Buprofezin]
100%

Give the measured absolute recovery of Cc1cc(Cl)ccc1OC(C)C(=O)[O-] (stereo not given) [Mecoprop] .
99%

Param item = COc1cccc(C2(O)CCCCC2C[NH+](C)C)c1 (stereo not given) [Tramadol] ; retrieve measured absolute recovery.
144%

Please report the recorded absolute recovery for CC(C)(C)[NH2+]CC(O)COc1nsnc1N1CCOCC1 (stereo not given) [Timolol] .
103%

Please give the measured absolute recovery for this compound: COC(=O)C1C2CC3c4[nH]c5cc(OC)ccc5c4CC[NH+]3CC2CC(OC(=O)c2cc(OC)c(OC)c(OC)c2)C1OC (stereo not given) [Reserpin]
64.3%

Which absolute recovery is listed for CCC1(c2cccc(O)c2)CCCC[NH+](C)C1 (stereo not given) [Meptazinol] ?
103%

I have this compound here, CN1COCN(Cc2cnc(Cl)s2)C1=N[N+](=O)[O-] [Thiamethoxam] , and I need its recorded absolute recovery.
105%

Which value of absolute recovery has been reported for O=C([O-])C(F)(F)C(F)(F)C(F)(F)F [PFBA] in the records?
86.3%

For the compound C[NH2+]C1(c2ccccc2Cl)CCCCC1=O (stereo not given) [Ketamin] , what absolute recovery is on record?
105%
